Below is a list of entries, each paired with its recorded EC50(pM), CRE-driven luciferase activity value.
# Assayed Target: Human glucagon receptor (human, UniProt P47871)
# Measurement Protocol: cell-based or functional assay
*1 amine or outer side, *2 acyl side, *3 side chain or, on linkers, in order; H or OH if unused. Bridges are numbered along the chain shown (N, C = ends). Where no end group is shown, it is not given here. Side-chain parts run from the residue outwards. [ ]: non-standard residue; d: D form. The star is where a group is joined. γGlu = O=C(O)[C@H](CCC(=O)[*:2])N[*:1]; Stearoyl = CCCCCCCCCCCCCCCCCC(=O)*; AEEA = NCCOCCOCC(=O)O; Aib = CC(C)(N)C(=O)O

# Binder, EC50(pM), CRE-driven luciferase activity
rows = [
    ("H[Aib]QGTFTSDKSKYLD[Aib]RRAQDFVQWLMNTK [Compound 39]", "> 1000 pM"),
    ("H[Aib]QGTFTSDK([AEEA-AEEA-γGlu-Stearoyl])SKYLDKRRAEDFVQWLMNTK (linker 16-20 via 4‑carbonylpiperidin‑1‑yl) [Compound 32]", "< 10 pM"),
    ("HXQGTFTSDXSKYLDXRRAQDFVQWLMNTKRNRNNIA (Aib at positions 2 and 16; Z at position 10 = Lys([(2-(2-(2-aminoethoxy)ethoxy)acetoyl)2]-[gamma glutamicacid]-[octadecanoyl])) [Compound 7]", "< 10 pM"),
    ("H[Aib]QGTFTSDK([AEEA-AEEA-γGlu-Stearoyl])SKYLDDRRAKDFVQWLMNTK (lactam 16-20) [Compound 26]", "< 10 pM"),
    ("HXQGTFTSDXSKYLDXRRAQDFVQWLMNTK (Aib at positions 2 and 16; Z at position 10 = Lys([(2-(2-(2-aminoethoxy)ethoxy)acetoyl)]-[gamma glutamicacid]-[octadecanoyl])) [Compound 17]", "< 10 pM"),
]

Values were extracted from patent US20200354425A1.
